Every entry's value here was drawn from paper PMC10375476.

In this section we review reported IC50 values for a set of compounds.
# study target: Pa RmlA (Pseudomonas aeruginosa, UniProt Q9HU22)
# Sequence (Q9HU22 1-293): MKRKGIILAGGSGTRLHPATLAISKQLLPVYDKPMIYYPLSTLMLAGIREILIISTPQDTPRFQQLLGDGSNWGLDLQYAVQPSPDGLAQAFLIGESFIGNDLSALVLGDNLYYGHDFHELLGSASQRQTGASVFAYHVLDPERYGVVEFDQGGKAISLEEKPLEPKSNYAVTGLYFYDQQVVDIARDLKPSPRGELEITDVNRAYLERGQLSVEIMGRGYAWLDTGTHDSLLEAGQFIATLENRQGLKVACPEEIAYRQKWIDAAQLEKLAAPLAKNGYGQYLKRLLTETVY
# assay method text: inhibition of reconstituted RmlA activity
# Assay type: biochemical
Numeric answer only, unit µM assumed.

Illustrative cases are given below, each with its answer.
* Cc1cn([C@H]2C[C@H](O)[C@@H](COP(=O)(O)OP(=O)(O)O[C@H]3O[C@@H](C)[C@H](O)[C@@H](O)[C@H]3O)O2)c(=O)[nH]c1=O | 25.1
* Cc1cn([C@H]2C[C@H](O)[C@@H](COP(=O)(O)OP(=O)(O)O[C@H]3O[C@@H](CO)[C@H](O)[C@@H](O)[C@H]3O)O2)c(=O)[nH]c1=O | 376
* C[C@@H]1O[C@H](OP(=O)(O)OP(=O)(O)OC[C@H]2O[C@@H](n3ccc(=O)[nH]c3=O)[C@H](O)[C@@H]2O)[C@H](O)[C@H](O)[C@H]1O | 362
* Cc1cn([C@H]2C[C@H](O)[C@@H](COP(=O)(O)OP(=O)(O)O[C@H]3O[C@@H](C)[C@@H](O)[C@@H](O)[C@H]3O)O2)c(=O)[nH]c1=O | 312

Field: next compound
Input line: Using the record for "Cc1cn([C@H]2C[C@H](O)[C@@H](COP(=O)(O)OP(=O)(O)O[C@@H]3O[C@@H](C)[C@H](O)[C@@H](O)[C@H]3O)O2)c(=O)[nH]c1=O" , report its IC50.
Output line: 250
